- target: T1, DLL3 target antigen coated on Octet SA tips (binning experiment) (Homo sapiens (Human), UniProt Q9NYJ7 27-492, Probably biotinylated for capture on streptavidin (SA) tips. The site is not stated.)
- T1 sequence: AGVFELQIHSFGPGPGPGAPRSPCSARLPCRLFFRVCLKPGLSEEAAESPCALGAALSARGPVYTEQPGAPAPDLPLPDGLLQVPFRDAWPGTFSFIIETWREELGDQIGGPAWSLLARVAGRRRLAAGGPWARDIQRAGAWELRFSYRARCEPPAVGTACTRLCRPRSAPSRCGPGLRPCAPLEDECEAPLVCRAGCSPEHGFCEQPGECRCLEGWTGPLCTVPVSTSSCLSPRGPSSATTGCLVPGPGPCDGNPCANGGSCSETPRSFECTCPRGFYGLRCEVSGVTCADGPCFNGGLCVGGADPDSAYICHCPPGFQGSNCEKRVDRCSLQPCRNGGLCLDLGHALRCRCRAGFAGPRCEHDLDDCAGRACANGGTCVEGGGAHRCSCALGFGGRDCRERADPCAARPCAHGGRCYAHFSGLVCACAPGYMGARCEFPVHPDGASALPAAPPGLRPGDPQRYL
- experiment.description: Octet binning on DLL3-coated SA tips; competitor: 3HCE4
Catalogue of binning response (unit not given) values
Lab note: record the figure alone, no unit after it.

3HCE56 anti-DLL3 VHH (VHH, In the binning assay it was used as a periplasmic extract) VHH: QVQLQESGGGLVQAGGSLRLSCAASGRTFSVDAMGWLRQAPGKEREFVVVIDWTGGSTAYADSVKGRFTISRDNARNTVYLQMNNLKPEDTGVYYCAARERSRTAYDYWGQGTQVTVSS :: -79.6

Could you tell me which binning response (unit not given) is on file for 2HCE27 anti-DLL3 VHH (VHH, In the binning assay it was used as a periplasmic extract; also called anti-DLL3 (2HCE27)) VHH: QVQLQESGGGLVQAGGSLRLSCAASGRTFRSYAMGWFRQAPGKEREFIAVIIMSDGSTSYADSVKGRFTISRDNAKNTLYLQMNSLKPEDTAVYYCAARRDYFTGVYDYWGQGTQVTVSS ?
53.4

Next up: 3HCE87 anti-DLL3 VHH (VHH, In the binning assay it was used as a periplasmic extract) VHH: QVQLQESGGGLVQAGGSLRLSCAASGFIFDDYIIGWFRQAPGKEREFVAAISWSGSATAYADSVKGRFTISRDNAKNTLYLQMNTLKPEDTAVYYCAASSRGPYNSGSSYDYWGQGTQVTVSS
-54.4

Next up: 3HCE4 anti-DLL3 VHH (VHH, In the binning assay it was used as a periplasmic extract) VHH: QVQLQESGGGLVQAGASLKLSCAVSGRAGSSYDMGWLRQAPGKEREFVAIITWSGNTAYKDSVKGRFIISRDNAKNTVYLEMNSLAPEDTAVYYCAAALSEKKYEYWGQGTQVTVSS
0

Next up: anti-human DLL3 BiTE (bispecific antibody, also called DLL3 BiTEs) QVQLQESGPGLVKPSETLSLTCTVSGGSISSYYWSWIRQPPGKGLEWIGYVYYSGTTNYNPSLKSRVTISVDTSKNQFSLKLSSVTAADTAVYYCASIAVTGFYFDYWGQGTLVTVSSGGGGSGGGGSGGGGSEIVLTQSPGTLSLSPGERVTLSCRASQRVNNNYLAWYQQRPGQAPRLLIYGASSRATGIPDRFSGSGSGTDFTLTISRLEPEDFAVYYCQQYDRSPLTFGGGTKLEIK
121

Next up: 2HCE117 anti-DLL3 VHH (VHH, In the binning assay it was used as a periplasmic extract) VHH: QVQLQESGGGLVQPGGSLRLSCAASGFTFSSYAMSWVRQAPGKGLEWVSDINSGGGSTYYADSVKGRFTISRDNAKNTLYLQMDSLKPEDTAVYYCATPFEIGSWGQGTQVTVSS
-90.1
